Listed below: relative viability values for each entry.
# Test system: UMB1949 (TSC2-deficient);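 also: renal angiomyolipoma cell lines screened in 384-well plates, viability normalized per plate to DMSO-treated cells, each plate carrying 50 nM rapamycin and 1 µM staurosporine controls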
# test.summary: relative viability vs DMSO (fraction); higher = less cytotoxic
# protocol.conditions: 1.6 nM; serum: 0.1% FBS; 72 h
endpoint.name: relative viability

compound | reported.value
CCC[C@H](NC(=O)/C(C#N)=C/c1cccc(Br)n1)c1ccccc1 [WP1130] | 1.04
O=C1Nc2ccccc2/C1=C1/Nc2ccccc2C1=O [Indirubin] | 0.972
CO[C@@H](C(=O)N1Cc2[nH]nc(NC(=O)c3ccc(N4CCN(C)CC4)cc3)c2C1)c1ccccc1 | 1.02
CC1(C)CC(=O)c2c(C(F)(F)F)nn(-c3ccc(C(N)=O)c(N[C@H]4CC[C@H](O)CC4)c3)c2C1 [SNX-2112] | 0.0113
Nc1nc2[nH]cc(CCc3ccc(C(=O)N[C@@H](CCC(=O)O)C(=O)O)cc3)c2c(=O)[nH]1 [Pemetrexed disodium] | 0.984
O=C(Nc1c[nH]nc1-c1nc2ccc(CN3CCOCC3)cc2[nH]1)NC1CC1 [AT9283] | 0.996
CC(C)c1cc(C(C)C)c(CC(=O)NS(=O)(=O)Oc2c(C(C)C)cccc2C(C)C)c(C(C)C)c1 [Avasimibe] | 1.06
CC1=NN(c2ccc(C)c(C)c2)C(=O)/C1=N\Nc1cccc(-c2cccc(C(=O)O)c2)c1O [Eltrombopag] | 1.05
Cc1cnc(NC(=O)Nc2cc(Br)c(C)cc2OC[C@@H]2CNCCO2)cn1 | 0.158

// data source = the supplement of paper PMC8960247
